- protocol_summary: Cytotoxicity against human Raji cells assessed as cell viability at 16 nmol by trypan blue staining
- Type: cell-based
- conditions_used: read-out: Activity
Please go through the items and note down their viability at 16 nmol.

> print(dat)
                                   compound  reported.result
1  C=C1CC(CC2(C)OC2COc2ccc3ccc(=O)oc3c2)OC1=O (stereo unspecified)            > 80%
2                      COc1ccc2ccc(=O)oc2c1              60%
3  C/C(=C\COc1ccc2ccc(=O)oc2c1)CC1CC(O)(CO)C(=O)O1 (stereo unspecified)            > 80%
4  CC1(O)CC(CC2(C)OC2COc2ccc3ccc(=O)oc3c2)OC1=O (stereo unspecified)            > 80%
5  C=C1CC(CC(C)(O)C2COc3ccc4ccc(=O)oc4c3O2)OC1=O (stereo unspecified)            > 80%

The reported viability at 16 nmol of the compound C=C1CC(C/C(C)=C/COc2ccc3ccc(=O)oc3c2O)OC1=O (stereo unspecified) was > 80%

Origin of values: ChEMBL document CHEMBL1155580
